This listing pairs compounds with measured Papp.
# assay.remarks: passive permeability, PAMPA, ADME assay (AID 1508612)
# measurement.context: pH 7.4, 30.0 min, 50.0 µM
Report the figure in ×10⁻⁶ cm/s without appending any unit label.

Consider the reported Papp for these compounds:
CCOc1ccccc1C(=O)Nc1ccncc1C(=O)Nc1cccc(S(=O)(=O)C(F)(F)F)c1 :: 99.5
Cc1cccc2c(C(=O)O)cc(-c3cccs3)nc12 :: 18.8
CN1C(=O)c2ccccc2[S@](=O)c2ccc(C(=O)NCCc3cccs3)cc21 :: 626
O=C(Nc1nnc(-c2cccs2)o1)c1ccc(Cl)cc1 :: 126
COc1ccccc1-c1nc(NCc2ccc(-c3cccnc3)cc2)c2ccccc2n1 :: 980
CC(=O)c1c(C)[nH]c(C(=O)N(C)C)c1C :: 57.4

[ask] Given the entry CCc1ccc(C2C(C(=O)Nc3ccccc3OC)=C(C)Nc3c(C(=O)Nc4ccc(C)cc4)cnn32)cc1 (configuration not stated) , report its measured Papp.
[reply] 547

[ask] Now consider O=C(Nc1ccc(OC(F)(F)Cl)cc1)c1cnc(N2CC[C@@H](O)C2)c(-c2ccn[nH]2)c1 .
[reply] 14.6

[ask] Now consider CC1=C(C(=O)Nc2nc3ccccc3s2)C(c2[nH]ncc2Cl)N=C(Nc2nc3ccccc3o2)N1 (configuration not stated) .
[reply] 6

[ask] Now consider C#CCNC(=O)c1nc(-c2ccc([S+](C)(=O)[O-])cc2)c2ccccn12 .
[reply] 545

[ask] Now consider O=S(=O)(Nc1nccs1)c1ccc(NCc2cccc3cc[nH]c23)cc1 .
[reply] 2.4

[ask] Now consider Cc1ccc(Cl)cc1NS(=O)(=O)c1cc2c(cc1F)NC(=O)CC2 .
[reply] 581

[ask] Now consider CCOC(=O)C1CCN(C(=O)Nc2ccc3c(c2)nc(C)n3C)CC1 .
[reply] 38.4

[ask] Now consider Cn1c(=O)cc(C(=O)NC2CCCc3c2[nH]c2c(Cl)cccc32)c2ccccc21 (configuration not stated) .
[reply] 68

[ask] Now consider CCOC(=O)C1CCN(C(=O)C2(NC(=O)Nc3ccc(F)cc3F)CCCCC2)CC1 .
[reply] 177

[ask] Now consider Cc1noc(C)c1-c1ccc(Nc2nc(-c3ccncc3)nc3ccccc23)cc1F .
[reply] 410

[ask] Now consider O=C(NC1CC1)c1nc(-c2cccnc2)c2cnccn12 .
[reply] 31.8

[ask] Now consider O=C(c1ccc2ncccc2c1)N1CCc2c(nc3cc[nH]n3c2=O)C1 .
[reply] 101

[ask] Now consider N#Cc1ccccc1Nc1ncc(-c2cccc3ccccc23)o1 .
[reply] 379

[ask] Now consider CCCC1=Nc2cc(C(=O)NC3CCCCC3)ccc2Sc2ccc(C)cc21 .
[reply] 17.1

[ask] Now consider Cc1cc(C)c(C(=O)Nc2cccc([S+](=O)([O-])N3CCCCC3)c2)[nH]1 .
[reply] 936

[ask] Now consider O=C(NCc1ccccc1)c1nc(S(=O)(=O)Cc2ccc(F)cc2)ncc1Cl .
[reply] 350

---

This listing pairs molecules with measured Papp.
# assay.remarks: passive permeability, PAMPA, ADME assay (AID 1508612)
# measurement.context: pH 7.4, 30.0 min, 50.0 µM
Report the figure in ×10⁻⁶ cm/s without appending any unit label.

CC(=O)c1sc(NC(=O)c2ccco2)nc1-c1ccccc1 :: 752
COc1ccc(-c2ccc(C(=O)NC3CC(c4cc(=O)[nH]c(N)n4)C3)o2)cc1 (stereo not given) :: 20.9
CCC(=O)NC(c1ccc(OC)cc1)c1cc(Cl)c2cccnc2c1O (stereo not given) :: 687
O=C1CCC(CNC(=O)c2nc(-c3ccccc3)cc3[nH]ccc23)N1 (stereo not given) :: 123
COC(=O)c1cc2occc2n1Cc1nc(-c2ccc(C)cc2)oc1C :: 40.3
CCN(CC)CCCC(C)Nc1cc(/C=C/c2ccccc2Cl)nc2cc(Cl)ccc12 (stereo not given) :: 833
O=C(COc1ccccc1)NCC(c1cccs1)S(=O)(=O)c1ccc(Cl)cc1 (stereo not given) :: 592
Cc1ccnc(NC(=S)N2CCN(c3cccc(C(F)(F)F)n3)CC2)c1 :: 866

Please find the next molecule below.
[ask] Given the entry Cc1ccc(S(=O)(=O)Nc2ccc(Br)cc2C(=O)Nc2nc(-c3ccccc3)cs2)cc1 , report its measured Papp.
[reply] 2.4
